Biological target: Ube2D3(C85S) (human, UniProt P61077 1-147, C85S)
Sequence (P61077 whole entry C85S): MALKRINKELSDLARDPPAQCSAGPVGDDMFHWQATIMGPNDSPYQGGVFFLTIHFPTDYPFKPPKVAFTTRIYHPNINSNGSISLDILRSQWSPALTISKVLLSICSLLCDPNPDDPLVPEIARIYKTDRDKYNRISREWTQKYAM
Assay: NMR titration
ENDPOINT: Kd (µM)
Please state the figure in µM; there is no need to write the unit.

Given UHRF2-UBL (residues 1–81) (domain or fragment, UniProt Q96PU4 1-81, looked up) MWIQVRTIDGSKTCTIEDVSRKATIEELRERVWALFDVRPECQRLFYRGKQLENGYTLFDYDVGLNDIIQLLVRPDPDHLP , respond with its Kd.
215

src = paper PMC6239910
